assay: Quantitative High-Throughput drug screen in 47 multiple myeloma cell lines against the NCATS MIPE library collection: Delta47_JCRB cell viability assay (AID 1918925; further: nearly all actives have a fitted effect of over 45% in size); conditions: Delta47 myeloma viability, CellTiter-Glo ATP, 48 h; series mostly up to 45.8 µM
Records with an inconclusive call do not appear. Active and inactive are the calls of the source. The call rests on the fitted dose curve; in most records, active means well fitted cell-killing curve with a large enough effect; inconclusive means small, poorly fitted or top-dose-only effect, or effect the other way; inactive means no such curve, though single readings can be large or run the other way.
API: response.call in 1.0 = active, 0.0 = inactive

[
  {
    "compound": "CCOc1cc2c(c(F)c1OCC)C(=N)N(CC(=O)c1cc(N3CCOCC3)c(OC)c(C(C)(C)C)c1)C2",
    "discrete.label": 1.0
  },
  {
    "compound": "Nc1nc(N)c2nc(-c3cccc(O)c3)c(-c3cccc(O)c3)nc2n1",
    "discrete.label": 1.0
  }
]

Next compound, please.
What did this assay record as the result for "C[C@H](NCc1ccc2c(c1)nc(NC(=O)c1ccc(-c3cn[nH]c3)s1)n2CCc1ccccc1)C(C)(C)C" ? 1.0

----------
assay: Quantitative High-Throughput drug screen in 47 multiple myeloma cell lines against the NCATS MIPE library collection: KMS27_JCRB cell viability assay (AID 1918970); conditions: KMS27 myeloma cells, CellTiter-Glo ATP viability, 48 h; further: nearly all actives have a fitted effect of over 30% in size
Results filed as inconclusive are left out. Activity calls are given as the source filed them. The call rests on the fitted dose curve; in most records, active means well fitted cell-killing curve with a large enough effect; inconclusive means small, poorly fitted or top-dose-only effect, or effect the other way; inactive means no such curve, though single readings can be large or run the other way.
API: response.call in active, inactive

[
  {
    "compound": "CN1C(C(=O)Nc2ccccn2)=C(O)c2sc(Cl)cc2S1(=O)=O",
    "discrete.label": "inactive"
  }
]

What did this assay record as the result for "CO[C@@H]1[C@@H](O)[C@H](O)[C@@H](n2c3c(Cl)cccc3c3c4c(c5c6cccc(Cl)c6[nH]c5c32)C(=O)NC4=O)O[C@@H]1CO" ? active

What did this assay record as the result for "COc1cc2c(Nc3ccc(Cl)c(Cl)c3F)ncnc2cc1OCC1C[C@@H]2CN(C)C[C@H]2C1" ? active

What did this assay record as the result for "CCCc1nc(C(C)(C)O)c(C(=O)O)n1Cc1ccc(-c2ccccc2-c2nn[nH]n2)cc1" ? inactive

What did this assay record as the result for "COc1cc(OC)c(C=CS(=O)(=O)Cc2ccc(OC)c(NCC(=O)O)c2)c(OC)c1" ? active

----------
assay: Primary qHTS for inhibitors of nuclear receptor binding SET domain protein 2 (NSD2) in an RCH-ACV wild type WT cells (2C) (AID 1645877); details: RCH-ACV (leukaemia line) NSD2 WT (2C) viability, CellTiter-Glo, 72 h; series mostly up to 44.9 µM; further: nearly all actives have a fitted effect of over 70% in size
Records with an inconclusive call do not appear. Calls of active or inactive are those of the source. Calls come from the whole dose curve; as a rule, active = well fitted inhibition curve with a large enough effect; inconclusive = small, poorly fitted or top-dose-only effect; inactive = no such curve, though single readings can be large or run the other way.
API: response.call in active, inactive

[
  {
    "molecule": "COC(=O)[C@H](CCCN=C(N)N)NS(=O)(=O)c1ccc(C)cc1",
    "discrete.label": "inactive"
  },
  {
    "molecule": "CC(C)c1cnn2c(NCc3ccccc3)cc(NCCCCCCN)nc12",
    "discrete.label": "active"
  },
  {
    "molecule": "CNC(=O)Nc1ccc(-c2nc(N3CC4CCC(C3)O4)c3cnn(C4CCC5(CC4)OCCO5)c3n2)cc1",
    "discrete.label": "active"
  }
]

What did this assay record as the result for O=C(O)CCCCC(CCSCc1ccccc1)SCc1ccccc1 (configuration not stated) ? inactive

What did this assay record as the result for "C=C(C)[C@@H]1CC[C@]2(C)CC[C@]3(C)[C@H](CC[C@@H]4[C@@]5(C)CC[C@H](O)C(C)(C)[C@H]5CC[C@]43C)[C@@H]12" ? inactive

What did this assay record as the result for "C[C@H](NC(=O)Cc1cc(F)cc(F)c1)C(=O)N[C@H](C(=O)OC(C)(C)C)c1ccccc1" ? inactive

What did this assay record as the result for "CCNC(=O)Nc1ccc(-c2nc3c(c(N4CCOC[C@H]4C)n2)CCN(C2COC2)C3)cc1" ? active

What did this assay record as the result for "COC[C@H](NC(=O)c1cnc(C)s1)C(=O)N[C@@H](COC)C(=O)N[C@@H](Cc1ccccc1)C(=O)[C@@]1(C)CO1" ? active

What did this assay record as the result for "CCOc1cc2c(c(F)c1OCC)C(=N)N(CC(=O)c1cc(N3CCOCC3)c(OC)c(C(C)(C)C)c1)C2" ? active
